test: qHTS assay to identify small molecule antagonists of the estrogen receptor alpha (ER-alpha) signaling pathway using the BG1 cell line - cell viability counter screen (AID 743081); conditions: BG1Luc4E2 viability, CellTiter-Fluor, 22 h; series mostly up to 70.3 µM;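 also: compound given together with 17beta-estradiol as the ER stimulus; nearly all actives have a fitted effect of over 45% in size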
Inconclusive results are not listed. Calls of active or inactive are those of the source. Calls follow the shape of the dose curve; as a rule, active = well fitted cell-killing curve with a large enough effect in the repeat runs; inconclusive = weak or mixed curves, or effect the other way; inactive = flat fitted curve, though single readings scatter.

| Compound | outcome |
| --- | --- |
| NCCc1ccc(O)cc1 | inactive |
| CCC[CH2][Sn]([Cl])([Cl])[Cl] | inactive |
| CCCN(CCC)N=O | inactive |
| CON(C)C(=O)Nc1ccc(Cl)c(Cl)c1 | inactive |
| CCOP(=S)(OCC)Oc1cnc2ccccc2n1 | inactive |
| OC(O)C(Cl)(Cl)Cl | inactive |
| CC(C)C#N | inactive |
| [O-][Cl+2]([O-])O | inactive |
| CCCCCCCCCl | inactive |
| CCCCCCCCCCCC#N | inactive |
| CC(C#N)CCC#N (stereo unspecified) | inactive |
| CC(Br)C(=O)O (stereo unspecified) | inactive |
| Cn1cc(-c2ccccc2)c(=O)c(-c2cccc(C(F)(F)F)c2)c1 | inactive |
| C=C(C)CCl | inactive |
| C1CN2CCN1CC2 | inactive |
| O=C(NC(=O)c1c(F)cccc1F)Nc1cc(Cl)c(OC(F)(F)C(F)C(F)(F)F)cc1Cl (stereo unspecified) | inactive |

====

experiment: qHTS assay to identify small molecule agonists of the peroxisome proliferator-activated receptor delta (PPARd) signaling pathway - cell viability counter screen (AID 743211); conditions: PPARd-bla HEK293H viability, CellTiter-Glo luminescence, 17 h; series mostly up to 62.6 µM; also: nearly all actives have a fitted effect of over 55% in size
Records with an inconclusive call do not appear. Activity calls are given as the source filed them. Calls come from the whole dose curve; as a rule, active = well fitted cell-killing curve with a large enough effect in the repeat runs; inconclusive = weak or mixed curves; inactive = no such curve, though single readings can be large or run the other way.

| Compound | outcome |
| --- | --- |
| CC1C=[C-]C=C1.[C-]#[O+].[C-]#[O+].[C-]#[O+].[Mn] | inactive |
| CCC[N+](=O)[O-] | inactive |
| COC(=O)c1ccccc1C(=O)OC | inactive |
| C#CC(C)(C)NC(=O)c1cc(Cl)cc(Cl)c1 | inactive |
| CCc1cccc(C)c1N(C(=O)CCl)C(C)COC (stereo not drawn) | inactive |
| C1CN2CCN1CC2 | inactive |
| CCN(CC)c1ccccc1 | inactive |
| COC(=O)NS(=O)(=O)c1ccc(N)cc1 | inactive |

====

experiment: qHTS assay to identify small molecule agonists of the endoplasmic reticulum stress response signaling pathway (AID 1159516); conditions: ESRE-bla HeLa, ER stress beta-lactamase reporter, 5 h; series mostly up to 61 µM
Inconclusive results are not listed. Active and inactive are the calls of the source. Calls follow the shape of the dose curve; as a rule, active = well fitted activation curve with a large enough effect in the signal ratio in the repeat runs (not every such curve was filed as active); inconclusive = weak or mixed curves, or effect the other way; inactive = flat fitted curve, though single readings scatter; the % refers to the signal ratio.
Outcome measure: outcome

| Compound | Result |
| --- | --- |
| CON(C)C(=O)Nc1ccc(Cl)c(Cl)c1 | inactive |
| [N-]=[N+]=[N-] | inactive |
| COC(=O)c1ccccc1C(=O)OC | inactive |
| CCCC1COC(Cn2cncn2)(c2ccc(Cl)cc2Cl)O1 (stereo unspecified) | inactive |
| O=C(NC(=O)c1c(F)cccc1F)Nc1cc(Cl)c(OC(F)(F)C(F)C(F)(F)F)cc1Cl (stereo unspecified) | inactive |
| CC1C=[C-]C=C1.[C-]#[O+].[C-]#[O+].[C-]#[O+].[Mn] | inactive |
| CCOP(=S)(OCC)SCCSCC | inactive |
| BrCCBr | inactive |
| CCOP(OCC)OCC | inactive |
| O=[N+]([O-])c1ccccc1 | inactive |
| Clc1ccc(Cl)cc1 | inactive |
| O=c1ccc(=O)[nH][nH]1 | inactive |
| Cc1ccccc1O | inactive |
| CC(C#N)CCC#N (stereo unspecified) | inactive |
| O=c1n(Cl)c(=O)n(Cl)c(=O)n1Cl | inactive |
| O=S(=O)(c1ccc(O)cc1)c1ccc(O)cc1 | inactive |
| Nc1c(Cl)c(Cl)nc(C(=O)O)c1Cl | inactive |
| Cc1ccc([N+](=O)[O-])cc1C | inactive |
| CCCCCCCCCCCC#N | inactive |
| Clc1ccccc1Cl | inactive |
| CC(NC(C)(C)C)C(=O)c1cccc(Cl)c1 (stereo unspecified) | inactive |
| Nc1ccc(Br)cc1 | inactive |
| [O-][Cl+2]([O-])O | inactive |
| CC(C)(C)C(O)(CCc1ccc(Cl)cc1)Cn1cncn1 (stereo unspecified) | inactive |
| CN=C=S | inactive |
| CC(C)=C[C@@H]1[C@@H](C(=O)OCc2coc(Cc3ccccc3)c2)C1(C)C | inactive |
| O=C(O)c1ccccn1 | inactive |
| O=[N+]([O-])c1ccc([As](=O)(O)O)cc1 | inactive |
| C[C@]12CC[C@H]3[C@@H](CC[C@@]45O[C@@H]4C(O)=C(C#N)C[C@]35C)[C@@H]1CC[C@@H]2O | inactive |
| CCN(CC)c1ccccc1 | inactive |
| C=C(C)CCl | inactive |

====

molecular target: Nuclear receptor subfamily 1 group I member 3 (Homo sapiens) (UniProt Q14994); test: qHTS assay to identify small molecule agonists of the constitutive androstane receptor (CAR) signaling pathway (AID 1224839); settings: HepG2 hCAR CYP2B6-luciferase, agonist mode, 24 h; series mostly up to 92.4 µM; also: nearly all actives have a fitted effect of over 15% in size;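 as to activation: HepG2 cells stably carrying human CAR and a CYP2B6 luciferase reporter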
Sequence (Q14994 whole entry, looked up): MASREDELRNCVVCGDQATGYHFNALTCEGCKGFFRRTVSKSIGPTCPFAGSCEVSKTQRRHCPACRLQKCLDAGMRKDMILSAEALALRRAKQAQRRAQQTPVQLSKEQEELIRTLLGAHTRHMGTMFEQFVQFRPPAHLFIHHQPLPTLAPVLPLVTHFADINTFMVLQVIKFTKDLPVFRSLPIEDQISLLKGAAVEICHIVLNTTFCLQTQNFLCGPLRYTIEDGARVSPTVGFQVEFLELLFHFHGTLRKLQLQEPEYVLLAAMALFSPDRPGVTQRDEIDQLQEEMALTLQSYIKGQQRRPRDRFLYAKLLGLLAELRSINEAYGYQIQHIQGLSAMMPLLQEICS
Results filed as inconclusive are left out. Active and inactive are the calls of the source. Calls come from the whole dose curve; as a rule, active = well fitted activation curve with a large enough effect in the repeat runs; inconclusive = weak or mixed curves; inactive = no such curve, though single readings can be large or run the other way.
Classes used: T = active, F = inactive

| Molecule | Qualitative label |
| --- | --- |
| COC(=O)NS(=O)(=O)c1ccc(N)cc1 | F |
| CN1C(=O)CN=C(c2ccccc2)c2cc(Cl)ccc21 | F |
| C[C@]12CC[C@H]3[C@@H](CC[C@@]45O[C@@H]4C(O)=C(C#N)C[C@]35C)[C@@H]1CC[C@@H]2O | F |
| CCN(CC)CCO | F |
| C1CC2OC2CC1C1CO1 (stereo unspecified) | F |
| O=C(O)c1ccccn1 | F |
| CC(C)(Cl)Cl | F |
| CN(N=O)c1ccccc1 | F |
| CCOC(=O)c1ccccc1C(=O)OCC | F |
| NCC(O)c1ccc(O)cc1 (stereo unspecified) | F |
| CCCCOC(=O)c1ccccc1C(=O)OCCCC | F |
| CC(C)(C)OOC(=O)c1ccccc1 | F |
| BrCCBr | F |
| CC(Br)C(=O)O (stereo unspecified) | F |
| CC(C)C#N | F |
| CN=C=S | F |
| C=C(C)CCl | F |
| Cc1cc(Cl)ccc1O | F |
| Cn1cc(-c2ccccc2)c(=O)c(-c2cccc(C(F)(F)F)c2)c1 | F |
| c1cc2c3c(cccc3c1)CC2 | F |
| CCCCN(CC)C(=O)SCCC | F |
| CC(C)NC(=O)N1CC(=O)N(c2cc(Cl)cc(Cl)c2)C1=O | F |
| C#CC(C)(C)NC(=O)c1cc(Cl)cc(Cl)c1 | F |
| CCC[CH2][Sn]([Cl])([Cl])[Cl] | F |
| ClCc1cccnc1 | F |
| CCCCCOC(=O)c1ccccc1C(=O)OCCCCC | F |
| Cc1ccc(N)cc1N | T |
| COC(=O)NC(=S)Nc1ccccc1NC(=S)NC(=O)OC | F |
| Cc1ccc([N+](=O)[O-])cc1C | F |
| CC(C)C1(C)N=C(c2nc3ccccc3cc2C(=O)O)NC1=O (stereo unspecified) | F |
| CCCN(CCC)c1c([N+](=O)[O-])cc(C(F)(F)F)cc1[N+](=O)[O-] | F |

====

experiment: qHTS assay to identify small molecule antagonists of the estrogen related receptor signaling pathway with the pleiotropic PPARgamma coactivator (PGC) from Tox21 10K library - cell viability counter screen (AID 1224840); settings: PGC/ERR reporter cells viability, CellTiter-Fluor, 17.5 h; series mostly up to 92.4 µM; also: nearly all actives have a fitted effect of over 40% in size
Inconclusive results are not listed. Activity calls are given as the source filed them. The call rests on the fitted dose curve; in most records, active means well fitted cell-killing curve with a large enough effect in the repeat runs (not every such curve was filed as active); inconclusive means weak or mixed curves, or effect the other way; inactive means no such curve, though single readings can be large or run the other way.
Classes used: YES for active, NO for inactive

| Compound | Qualitative label |
| --- | --- |
| CC1OC(C)OC(C)O1 (centres undefined) | NO |
| CC(C)(C)OOC(=O)c1ccccc1 | NO |
| CCCC1COC(Cn2cncn2)(c2ccc(Cl)cc2Cl)O1 (centres undefined) | YES |
| CC(C)=C[C@@H]1[C@@H](C(=O)OCc2coc(Cc3ccccc3)c2)C1(C)C | NO |
| O=[N+]([O-])c1ccc(Oc2ccc(Cl)cc2Cl)cc1 | NO |
| CN(N=O)c1ccccc1 | NO |
| O=C(NC(=O)c1c(F)cccc1F)Nc1cc(Cl)c(OC(F)(F)C(F)C(F)(F)F)cc1Cl (centres undefined) | NO |
| CC(C)OC(=O)Nc1cccc(Cl)c1 | NO |
| CCN(CC)c1ccccc1 | NO |
| CC(C)(C)C(O)(CCc1ccc(Cl)cc1)Cn1cncn1 (centres undefined) | NO |
| Nc1ccc(Br)cc1 | NO |
| Cc1ccc(N)cc1N | NO |
| O=C(O)c1ccccn1 | NO |
| C=CCO | NO |
